Tested on: Saccharomyces cerevisiae
protocol summary: protein stability index of tFT-peptide fusion (C-terminal peptide) (PSI (0-1 scale)); higher = more stable (slower turnover)
applied conditions: genetic background: wild type; temperature: 30 C
Kind request: treat 0.7 as inclusive, so protein stability index at 0.7 or higher is TRUE, anything lower is FALSE.

>>> df
   primary_sequence     target_or_test_system  group_label
0      FSLFYYIHLSVA  Saccharomyces cerevisiae        FALSE
1      IRLSVPGLTCVS  Saccharomyces cerevisiae        FALSE
2      RSHPTPQAHPSA  Saccharomyces cerevisiae         TRUE
3      PPCPVTSFRPSI  Saccharomyces cerevisiae         TRUE
4      KKKKNIKIKKQI  Saccharomyces cerevisiae        FALSE
5      VAGKVWREAEPG  Saccharomyces cerevisiae        FALSE
6      VSNTSAWLLWIS  Saccharomyces cerevisiae        FALSE
7      SHALSFSFSLLP  Saccharomyces cerevisiae        FALSE

====

Test system: Saccharomyces cerevisiae
protocol summary: protein stability index of tFT-peptide fusion (C-terminal peptide) (PSI (0-1 scale)); higher = more stable (slower turnover)
applied conditions: genetic background: wild type; temperature: 30 C
reported endpoint: protein stability index

>>> print(df.to_string())
   primary_sequence  reported_value
0      YLDRFIFIYNIF           0.202
1      FFPFHPHVLRLL           0.203
2      GRWLYSACVALN           0.196

====

Tested on: Saccharomyces cerevisiae
protocol summary: protein stability index of tFT-peptide fusion (C-terminal peptide) (PSI (0-1 scale)); higher = more stable (slower turnover)
applied conditions: genetic background: das1 deletion; temperature: 30 C
reported endpoint: protein stability index

>>> df
                           primary_sequence  reported_value
 0     RDLLRDDKVALI [SLD5 C-terminal 12 aa]           0.715
 1     KNEELSKKHFSK [ROK1 C-terminal 12 aa]           0.718
 2     QFWKNTPKVEQK [HOC1 C-terminal 12 aa]            0.71
 3     ANCNTADCLEDH [COT1 C-terminal 12 aa]           0.687
 4     YNSELVATKDIQ [PNT1 C-terminal 12 aa]           0.703
 5  AWSYLARQVLYY [YGR176W C-terminal 12 aa]           0.699
 6    CGKCHSVYKVNA [RPS31 C-terminal 12 aa]           0.703
 7     STIQTTSVDPTT [BSC1 C-terminal 12 aa]            0.71
 8     YDYNSKNSRGFY [DEF1 C-terminal 12 aa]             0.7
 9     LYKPSVWDLFEY [FZF1 C-terminal 12 aa]           0.716
10     DEELHPLSDEGM [DPP1 C-terminal 12 aa]           0.691
11  PEYDQVKQNNKE [YLR041W C-terminal 12 aa]           0.691
12   QTLAPVPYETFI [RPL21A C-terminal 12 aa]           0.718
13     VSKELRSRDLLD [RPE1 C-terminal 12 aa]            0.68
14     QFLFTGRQKNYV [ERP2 C-terminal 12 aa]           0.718
15     LCQHYIGWCPFW [TOR1 C-terminal 12 aa]           0.714
16     HGNWSRVVTDLN [BAT2 C-terminal 12 aa]           0.687
17     EHDKSPLSRKRQ [SFI1 C-terminal 12 aa]           0.708
18  VENTTVDFNYDM [YLR179C C-terminal 12 aa]            0.69
19  DTFIPSTLQSVT [YNL089C C-terminal 12 aa]           0.702
20  QEGNRMCIWMSG [YFL015C C-terminal 12 aa]             0.7
21    VDGFNDALQLSK [HEM14 C-terminal 12 aa]           0.685
22     RERALKVYKDAM [PHR1 C-terminal 12 aa]           0.682
23    HAKGSGNTMNRG [TAP42 C-terminal 12 aa]           0.691
24     KTDPNEPANDYR [DLD1 C-terminal 12 aa]            0.68
